- target: SARS-CoV-2 main protease (M^pro) (Severe acute respiratory syndrome coronavirus 2, UniProt P0DTD1)
- test-summary: Rapid-Fire MS Biochemical Assay measuring Mpro activity (12.5 nM Mpro)
- condition-parameters: Table 1A, Mpro inhibition, 5 μM substrate peptide, 30 min
pIC50: −log10 of the molar value.
pIC50 values for the molecules below.
observation-type: pIC50

>>> number("N#C[C@@H]1CN(c2cccc(Cl)c2)C(=O)N1c1cncc2ccccc12 (single isomer, unassigned) [Compound 2b]")
5.52
>>> number("N#CC1CN(c2cccc(F)c2)C(=O)N1c1cncc2ccccc12 (racemic) [Compound 7]")
8.22

----------
- target: SARS-CoV-2 main protease (M^pro) (Severe acute respiratory syndrome coronavirus 2, UniProt P0DTD1)
- test-summary: Rapid-Fire MS Biochemical Assay measuring Mpro activity (5 nM Mpro)
- condition-parameters: Table 1B, Mpro inhibition, 5 μM substrate peptide, 120 min, read-out: Rapid-Fire Assay IC50
Below is a list of entries, each paired with its recorded IC50 value.
observation-type: IC50

>>> result("N#C[C@H]1CN(C2CN(CC(F)(F)F)C2)C(=O)N1c1cncc2ccccc12 (single isomer, unassigned) [Compound 133a]")
"< 20 nM"
>>> result("N#C[C@@H]1CN(c2ncc(C(F)(F)F)cn2)C(=O)N1c1cncc2ccccc12 (single isomer, unassigned) [Compound 42b]")
"> 1000 nM"
>>> result("CS(=O)(=O)c1cccc(N2C[C@@H](C#N)N(c3cncc4ccccc34)C2=O)c1 (single isomer, unassigned) [Compound 48b]")
"> 1000 nM"
>>> result("C[C@@]1(C#N)CN(c2cccc(Cl)c2)C(=O)N1c1cncc2ccccc12 (single isomer, unassigned) [Compound 40b]")
"> 1000 nM"
